Target: human αVβ6 (Homo sapiens, UniProt P06756+P18564)
Construct: purchased R & D systems 3817-AV
Sequence (P06756 31-992 limits assumed): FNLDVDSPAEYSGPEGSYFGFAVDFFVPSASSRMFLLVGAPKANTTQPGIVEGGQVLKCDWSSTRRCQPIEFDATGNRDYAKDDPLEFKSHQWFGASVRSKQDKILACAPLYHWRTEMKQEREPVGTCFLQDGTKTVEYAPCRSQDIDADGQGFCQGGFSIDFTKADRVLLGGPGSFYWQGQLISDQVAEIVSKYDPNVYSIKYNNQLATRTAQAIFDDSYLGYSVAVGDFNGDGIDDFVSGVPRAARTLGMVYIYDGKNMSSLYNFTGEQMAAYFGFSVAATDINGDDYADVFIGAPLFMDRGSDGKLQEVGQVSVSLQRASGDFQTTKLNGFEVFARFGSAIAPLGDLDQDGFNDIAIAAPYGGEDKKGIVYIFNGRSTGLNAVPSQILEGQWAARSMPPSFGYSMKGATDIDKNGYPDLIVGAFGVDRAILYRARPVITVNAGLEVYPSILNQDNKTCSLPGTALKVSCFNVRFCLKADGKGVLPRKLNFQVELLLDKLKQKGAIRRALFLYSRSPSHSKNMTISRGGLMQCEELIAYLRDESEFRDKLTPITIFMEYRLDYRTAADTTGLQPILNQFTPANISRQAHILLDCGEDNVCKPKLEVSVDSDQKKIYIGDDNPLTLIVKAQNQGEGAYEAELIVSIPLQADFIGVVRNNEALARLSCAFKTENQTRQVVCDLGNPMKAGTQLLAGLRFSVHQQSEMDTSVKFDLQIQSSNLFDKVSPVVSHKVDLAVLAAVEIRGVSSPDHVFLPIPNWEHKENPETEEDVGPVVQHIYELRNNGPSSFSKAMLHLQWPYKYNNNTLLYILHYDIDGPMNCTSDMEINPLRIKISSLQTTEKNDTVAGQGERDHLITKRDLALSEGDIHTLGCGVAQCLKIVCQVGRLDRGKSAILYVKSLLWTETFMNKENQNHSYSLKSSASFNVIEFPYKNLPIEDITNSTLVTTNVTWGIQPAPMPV
Sequence (P18564 22-707 limits assumed): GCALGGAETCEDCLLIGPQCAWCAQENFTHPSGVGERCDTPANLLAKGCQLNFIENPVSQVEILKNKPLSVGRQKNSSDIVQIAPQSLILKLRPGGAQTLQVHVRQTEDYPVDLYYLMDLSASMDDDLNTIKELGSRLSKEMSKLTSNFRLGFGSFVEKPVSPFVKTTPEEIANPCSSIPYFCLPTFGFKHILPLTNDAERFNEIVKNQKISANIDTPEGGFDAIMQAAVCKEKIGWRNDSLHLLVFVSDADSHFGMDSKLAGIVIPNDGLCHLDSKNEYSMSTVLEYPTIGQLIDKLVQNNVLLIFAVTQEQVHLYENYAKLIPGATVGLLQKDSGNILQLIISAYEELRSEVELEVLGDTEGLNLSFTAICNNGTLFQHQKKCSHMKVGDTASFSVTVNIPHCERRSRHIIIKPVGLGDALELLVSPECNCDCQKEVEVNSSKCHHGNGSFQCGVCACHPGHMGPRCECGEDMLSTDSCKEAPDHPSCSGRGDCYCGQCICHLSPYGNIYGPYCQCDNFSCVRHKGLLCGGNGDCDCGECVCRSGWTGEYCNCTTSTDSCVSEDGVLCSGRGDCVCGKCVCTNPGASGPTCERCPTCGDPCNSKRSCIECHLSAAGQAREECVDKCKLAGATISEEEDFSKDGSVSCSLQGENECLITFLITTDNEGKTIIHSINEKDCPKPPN
Assay: human αVβ6 HTRF binding assay
Details: recombinant human αVβ6 integrin, FITC-conjugated fibronectin
Counter-ions that a name gives are not always drawn.
measured_property: IC50 (µM)

a: O=C(O)CC(c1ccc2c(c1)oc1ccccc12)n1ncc2c(OCCc3ccc4c(n3)NCCC4)cccc21 (centres unmarked) [Example 30]
b: O=C(O)CC(c1cncc(N2CCCC2=O)c1)n1ncc2cc(OCCc3ccc4c(n3)NCCC4)ccc21 (centres unmarked) [Example 102, TFA]
For the two items a and b , which reports the higher IC50 value? Respond using the label that marks the chosen record.
a

I: CN1CCN(c2cncc(C(CC(=O)O)n3ncc4cc(OCCc5ccc6c(n5)NCCC6)ccc43)c2)CC1 (centres unmarked) [Example 156]
II: Cc1cc(C)nc(C(CC(=O)O)n2ncc3cc(OCCc4ccc5c(n4)NCCC5)ccc32)n1 (centres unmarked) [Example 55, TFA]
For the two items I and II , which reports the higher IC50 value? Respond using the label that marks the chosen record.
II
(II: 0.92 µM, I: 0.0088 µM)

I: COc1ccc(C(CC(=O)O)n2ncc3cc(CCCc4ccc5c(n4)NCCC5)ccc32)cn1 (centres unmarked) [Example 20]
II: COc1ccc([C@H](CC(=O)O)n2cc3cc(CCc4ccc5c(n4)NCCC5)ccc3n2)cn1 [Example 64]
III: O=C(O)CC(c1cncc(N2CCOCC2)n1)n1ncc2cc(OCCc3ccc4c(n3)NCCC4)ccc21 (centres unmarked) [Example 142]
Would you mind ranking these compounds by ascending IC50? // format: requested-order list of labels
II, III, I
(II: 0.019 µM, III: 0.036 µM, I: 0.07 µM)

A: O=C(O)CC1(n2ncc3cc(OCCc4ccc5c(n4)NCCC5)ccc32)CC1 [Example 76, TFA]
B: Cn1cc(-c2cncc(C(CC(=O)O)n3ncc4cc(OCCc5ccc6c(n5)NCCC6)ccc43)c2)cn1 (centres unmarked) [Example 143]
Of A and B , whose reported IC50 is numerically smaller? Respond using the label that marks the chosen record.
B
(B: 0.0098 µM, A: 3.4 µM)

P: O=C(O)CC(c1ccc2oc3ccccc3c2c1)n1ncc2cc(OCCc3ccc4c(n3)NCCC4)ccc21 (centres unmarked) [Example 54, TFA]
Q: O=C(O)CC(c1ccc2cnccc2c1)n1ncc2cc(OCCc3ccc4c(n3)NCCC4)ccc21 (centres unmarked) [Example 94, TFA]
For the two items P and Q , which reports the higher IC50 value? Respond using the label that marks the chosen record.
P

P: Cc1ncc([C@H](CC(=O)O)n2ncc3cc(OCCc4ccc5c(n4)N[C@H](C)CC5)ccc32)cn1 (single isomer, unassigned) [Example 176]
Q: O=C(O)CC(c1cccc(-n2cccn2)n1)n1ncc2cc(OCCc3ccc4c(n3)NCCC4)ccc21 (centres unmarked) [Example 134]
Of P and Q , whose reported IC50 is numerically smaller? Respond using the label that marks the chosen record.
Q

A: O=C(O)CC(c1cncc(-c2ccn[nH]2)c1)n1ncc2cc(OCCc3ccc4c(n3)NCCC4)ccc21 (centres unmarked) [Example 141]
B: O=C(O)CC(Cc1ccc(F)cc1)n1ncc2cc(OCCc3ccc4c(n3)NCCC4)ccc21 (centres unmarked) [Example 78, TFA]
C: O=C(O)CC(c1cnc2c(c1)OCO2)n1ncc2cc(OCCc3ccc4c(n3)NCCC4)ccc21 (centres unmarked) [Example 132]
D: Cc1ncc([C@H](CC(=O)O)n2ncc3cc(OCCc4ccc5c(n4)N[C@@H](C)CC5)ccc32)cn1 (single isomer, unassigned) [Example 178]
Would you mind ranking these compounds by ascending IC50? // format: requested-order list of labels
A, C, D, B
(A: 0.0082 µM, C: 0.022 µM, D: 0.11 µM, B: 0.804 µM)

P: COc1ccc(C(CC(=O)O)n2nc(C)c3cc(OCCc4ccc5c(n4)NCCC5)ccc32)cn1 (centres unmarked) [Example 70]
Q: Cc1ncc([C@@H](CC(=O)O)n2ncc3cc(OCCc4ccc5c(n4)N[C@@H](C)CC5)ccc32)cn1 (single isomer, unassigned) [Example 177]
Of P and Q , whose reported IC50 is numerically smaller? Respond using the label that marks the chosen record.
P
(P: 0.953 µM, Q: 5 µM)

---

Target: human αVβ6 (Homo sapiens, UniProt P06756+P18564)
Experiment: human αVβ6 HTRF binding assay
Details: recombinant human αVβ6 integrin, FITC-conjugated fibronectin
Structures can show the parent of a compound that is named as a salt.
measured_property: IC50 (nM)

Record excerpt, results attached:
# compound, target_under_test, units_of_measure, numeric_result
records = [
    ("CCOc1ncc(C(CC(=O)O)n2ncc3cc(OCCc4ccc5c(n4)NCCC5)ccc32)cn1 (stereo not shown) [Example 77, TFA]", "human αVβ6 (Homo sapiens, UniProt P06756+P18564)", "nM", 5.8),
    ("CS(=O)(=O)NCc1cncc(C(CC(=O)O)n2ncc3cc(OCCc4ccc5c(n4)NCCC5)ccc32)c1 (stereo not shown)", "human αVβ6 (Homo sapiens, UniProt P06756+P18564)", "nM", 18),
    ("COc1ncc(C(CC(=O)O)n2ncc3cc(OCCc4ccc5c(n4)NCCC5)ccc32)cc1F (stereo not shown) [Example 86, TFA]", "human αVβ6 (Homo sapiens, UniProt P06756+P18564)", "nM", 7.8),
    ("COc1ccc(C(CC(=O)O)n2ncc3cc(OCCNC4=NCCN4)ccc32)cn1 (stereo not shown)", "human αVβ6 (Homo sapiens, UniProt P06756+P18564)", "nM", 2000),
    ("O=C(O)CC(c1cncc(-c2cnco2)c1)n1ncc2cc(OCCc3ccc4c(n3)NCCC4)ccc21 (stereo not shown)", "human αVβ6 (Homo sapiens, UniProt P06756+P18564)", "nM", 8.8),
]

1: Cn1cc2ncc(C(CC(=O)O)n3ncc4cc(OCCc5ccc6c(n5)NCCC6)ccc43)cc2n1 (stereo not shown)
2: COc1ccc(C(CC(=O)O)n2ncc3c(CCCc4ccc5c(n4)NCCC5)cccc32)cn1 (stereo not shown)
Of 1 and 2 , whose reported IC50 is numerically smaller? Respond using the label that marks the chosen record.
1
(1: 41 nM, 2: 1600 nM)

P: O=C(O)CC(c1ccc2c(c1)oc1ccccc12)n1ncc2cc(CCc3ccc4c(n3)NCCC4)ccc21 (stereo not shown)
Q: CN(C)Cc1cccc(C(CC(=O)O)n2ncc3cc(OCCc4ccc5c(n4)NCCC5)ccc32)c1 (stereo not shown) [Example 60, TFA]
R: Cn1ccc(C(CC(=O)O)n2ncc3cc(OCCc4ccc5c(n4)NCCC5)ccc32)cc1=O (stereo not shown) [Example 71, TFA]
List these items ordered by IC50, big to small. // format: requested-order list of labels
P, R, Q

A: Cc1cc(C)c(S(=O)(=O)NC(Cn2ncc3cc(OCCc4ccc5c(n4)NCCC5)ccc32)C(=O)O)c(C)c1 (stereo not shown)
B: O=C(O)C[C@@H](c1cccc(N2CCCC2=O)c1)n1ncc2cc(OCCc3ccc4c(n3)NCCC4)ccc21 [Example 84, TFA]
C: CCOc1ncc([C@H](CC(=O)O)n2ncc3cc(OCCc4ccc5c(n4)NCCC5)ccc32)cn1 [Example 107, TFA]
D: O=C(O)CC(C1CC1)n1ncc2cc(OCCc3ccc4c(n3)NCCC4)ccc21 (stereo not shown) [Example 45, TFA]
Would you mind ranking these compounds by ascending IC50? // format: requested-order list of labels
C, B, A, D
(C: 15 nM, B: 120 nM, A: 320 nM, D: 2300 nM)

---

Biological target: human αVβ6 (Homo sapiens, UniProt P06756+P18564)
Assay: human αVβ6 HTRF binding assay
Conditions: recombinant human αVβ6 integrin, FITC-conjugated fibronectin
pIC50: −log10 of the molar value. Structures can show the parent of a compound that is named as a salt.
measured_property: pIC50

Record excerpt, results attached:
# compound, measured_property, numeric_result
rows = [
    ("O=C(O)CC(c1cncc(C2OCCO2)c1)n1ncc2cc(OCCc3ccc4c(n3)NCCC4)ccc21 (stereo not shown) [Example 104]", "pIC50", 7.92),
    ("O=C(O)CCCNc1cncc(C(CC(=O)O)n2ncc3cc(OCCc4ccc5c(n4)NCCC5)ccc32)n1 (stereo not shown) [Example 173]", "pIC50", 6.43),
    ("O=C(O)CC(c1ccc2c(n1)NCCC2)n1ncc2cc(OCCc3ccc4c(n3)NCCC4)ccc21 (stereo not shown) [Example 116, TFA]", "pIC50", 8.23),
    ("O=C(O)C[C@H](c1cccc(N2CCCC2=O)c1)n1ncc2cc(OCCc3ccc4c(n3)NCCC4)ccc21 [Example 85, TFA]", "pIC50", 8.60),
    ("COc1ncc(C(CC(=O)O)n2ncc3cc(OCCc4ccc5c(n4)NCCC5)ccc32)cc1C1OCCO1 (stereo not shown) [Example 133]", "pIC50", 6.40),
    ("O=C(O)CC(c1cccs1)n1ncc2cc(OCCc3ccc4c(n3)NCCC4)ccc21 (stereo not shown) [Example 49, TFA]", "pIC50", 7.48),
]

1: O=C(O)CC(c1cnc2c(c1)CCCN2)n1ncc2cc(OCCc3ccc4c(n3)NCCC4)ccc21 (stereo not shown) [Example 172]
2: COc1ccc([C@H](CC(=O)O)n2cc3cc(OCCc4ccc5c(n4)NCCC5)ccc3n2)cn1 [Example 6]
For the two items 1 and 2 , which reports the higher pIC50 value? Respond using the label that marks the chosen record.
1
(1: 7.92, 2: 6.22)

I: O=C(O)CC(CCC(F)(F)F)n1ncc2c(CCCc3ccc4c(n3)NCCC4)cccc21 (stereo not shown) [Example 31]
II: CC(C)(C)OC(=O)NCc1cncc(C(CC(=O)O)n2ncc3cc(OCCc4ccc5c(n4)NCCC5)ccc32)c1 (stereo not shown) [Example 123]
III: CC(C)(O)c1cncc([C@@H](CC(=O)O)n2ncc3cc(OCCc4ccc5c(n4)NCCC5)ccc32)c1 [Example 145]
IV: O=C(O)CC(c1cncc(C(=O)N2CCC2)c1)n1ncc2cc(OCCc3ccc4c(n3)NCCC4)ccc21 (stereo not shown) [Example 157]
Would you mind ranking these compounds by ascending pIC50? // format: requested-order list of labels
I, III, IV, II

A: O=C(O)CC(c1cncc(-n2cccn2)c1)n1ncc2cc(OCCc3ccc4c(n3)NCCC4)ccc21 (stereo not shown) [Example 161]
B: COc1ccc(C(CC(=O)O)n2ncc3c(CCc4ccc5c(n4)NCCC5)cccc32)cn1 (stereo not shown) [Example 174]
C: CN(C)C(=O)c1cncc(C(CC(=O)O)n2ncc3cc(OCCc4ccc5c(n4)NCCC5)ccc32)c1 (stereo not shown) [Example 153]
D: CC(=O)NCc1cncc(C(CC(=O)O)n2ncc3cc(OCCc4ccc5c(n4)NCCC5)ccc32)c1 (stereo not shown) [Example 171]
E: COc1ccc(C(CC(=O)O)n2ncc3cc(OCCc4ccc5c(n4)NCCC5)ccc32)nn1 (stereo not shown) [Example 114, TFA]
List these items ordered by pIC50, big to small. // format: requested-order list of labels
E, A, C, D, B
(E: 8.59, A: 8.26, C: 7.77, D: 7.34, B: 6.27)

a: O=C(O)CC(c1cnc2c(c1)OCCO2)n1ncc2cc(OCCc3ccc4c(n3)NCCC4)ccc21 (stereo not shown) [Example 109, TFA]
b: O=C(O)CC(c1cnc2ccccc2c1)n1ncc2cc(OCCc3ccc4c(n3)NCCC4)ccc21 (stereo not shown) [Example 48, TFA]
For the two items a and b , which reports the higher pIC50 value? Respond using the label that marks the chosen record.
b
(b: 8.26, a: 7.82)
